Biological target: Coagulation factor XII (Homo sapiens, UniProt P00748);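 note: activated factor XIIa alpha cleaving a fluorogenic AMC peptide substrate; inhibitor potency from loss of enzyme activity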
Sequence (P00748 20-372 limits assumed): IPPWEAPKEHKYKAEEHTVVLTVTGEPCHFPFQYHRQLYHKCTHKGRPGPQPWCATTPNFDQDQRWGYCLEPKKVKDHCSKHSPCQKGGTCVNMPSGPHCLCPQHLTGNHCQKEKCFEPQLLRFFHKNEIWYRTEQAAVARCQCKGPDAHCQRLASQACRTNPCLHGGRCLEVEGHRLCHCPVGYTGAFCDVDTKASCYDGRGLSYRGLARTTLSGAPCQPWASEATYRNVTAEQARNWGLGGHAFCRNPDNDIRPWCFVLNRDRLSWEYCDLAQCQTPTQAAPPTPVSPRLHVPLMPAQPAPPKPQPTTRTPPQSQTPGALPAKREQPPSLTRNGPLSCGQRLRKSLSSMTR
Sequence (P00748 373-615 limits assumed): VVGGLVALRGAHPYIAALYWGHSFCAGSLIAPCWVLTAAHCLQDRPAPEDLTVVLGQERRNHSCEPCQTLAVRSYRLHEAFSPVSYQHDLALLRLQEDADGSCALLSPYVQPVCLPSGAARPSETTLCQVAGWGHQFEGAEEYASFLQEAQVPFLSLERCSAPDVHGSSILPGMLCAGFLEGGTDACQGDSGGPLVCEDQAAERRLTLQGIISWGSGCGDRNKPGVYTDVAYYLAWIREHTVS
Assay type: functional
The source made the active and inactive calls.
Bench note: report the call from class 1 = active, class 0 = inactive

Molecule	Test system	Class name
O=C(Oc1cncc(Cl)c1)c1ccco1	Coagulation factor XII (Homo sapiens, UniProt P00748)	class 1

## Task Tell me the assay call for COc1ccccc1C(=O)n1nc(-c2cccnc2)nc1N please.
## Result class 1

## Task Record lookup: outcome of this test for COCCCn1c(=O)/c(=C\c2ccccc2OC(C)C)s/c1=C(/C#N)C(=O)Nc1ccc(C(=O)O)cc1 ?
## Result class 0

## Task Recorded test call requested for Cc1ccc(C(CC(=O)NCCCN(C)C)c2ccc(OC(C)C)cc2)cc1 (configuration not stated)
## Result class 0

## Task Look up the recorded call for CCn1c(O)cc(=O)nc1SCC(=O)N1CCCCC1 in this test.
## Result class 0

## Task Outcome? O=C(Cc1ccccc1[N+](=O)[O-])Nc1ccccc1C(=O)N1CCCC1
## Result class 0

## Task Dear colleague, could you share the recorded outcome for COc1ccc(C2=NN(C(=O)CCCC(=O)O)C(c3cn(-c4ccccc4)nc3-c3ccccc3)C2)cc1 (configuration not stated) when you have a moment?
## Result class 0

====

Target: Mannose-6-phosphate isomerase (Homo sapiens, UniProt P34949)
Sequence (P34949 whole entry): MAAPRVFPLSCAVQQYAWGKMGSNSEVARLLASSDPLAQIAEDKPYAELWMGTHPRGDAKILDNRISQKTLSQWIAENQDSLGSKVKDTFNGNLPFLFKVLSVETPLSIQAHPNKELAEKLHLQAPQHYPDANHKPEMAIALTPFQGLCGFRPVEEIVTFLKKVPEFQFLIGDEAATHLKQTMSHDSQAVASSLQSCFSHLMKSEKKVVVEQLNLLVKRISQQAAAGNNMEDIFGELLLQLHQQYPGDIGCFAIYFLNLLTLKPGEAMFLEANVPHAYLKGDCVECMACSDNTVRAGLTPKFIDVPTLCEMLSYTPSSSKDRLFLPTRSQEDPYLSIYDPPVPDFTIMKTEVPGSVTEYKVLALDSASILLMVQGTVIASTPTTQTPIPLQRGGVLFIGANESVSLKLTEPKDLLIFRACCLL
Assay: human PMI inhibitors, high substrate, primary screen, biochemical, fluorescence intensity, high mannose 6-phosphate (AID 1220)
The source made the active and inactive calls.
Recorded measurements of IC50, one per entry

Examples from the recorded data:
Smiles input	IC50
COc1ccc(/C=N/Nc2cc(N(C)C)nc(N(C)C)n2)cc1	> 50 µM (not active)
COc1ccc2c(c1)-c1nc(/N=C/c3cccc(OC)c3O)sc1CC2	> 50 µM (not active)
CN(C)S(=O)(=O)c1cccc(-n2sc3ccccc3c2=O)c1	11.7 µM (active)
Cc1c(Cc2ccccc2)c(=O)oc2c(O)c(O)ccc12	29.6 µM (active)

Proceeding to the next molecule to report its IC50.
## Task Tell me the measured IC50 of O=C(CCc1ccc(S(=O)(=O)N2CCOCC2)cc1)N/N=C/c1ccc(O)c(O)c1O , please.
## Result 16.4 µM (active)

====

Examples of compounds with documented EC50 follow.
Target: Short transient receptor potential channel 4 (Mus musculus, UniProt Q9QUQ5)
Sequence (Q9QUQ5 whole entry): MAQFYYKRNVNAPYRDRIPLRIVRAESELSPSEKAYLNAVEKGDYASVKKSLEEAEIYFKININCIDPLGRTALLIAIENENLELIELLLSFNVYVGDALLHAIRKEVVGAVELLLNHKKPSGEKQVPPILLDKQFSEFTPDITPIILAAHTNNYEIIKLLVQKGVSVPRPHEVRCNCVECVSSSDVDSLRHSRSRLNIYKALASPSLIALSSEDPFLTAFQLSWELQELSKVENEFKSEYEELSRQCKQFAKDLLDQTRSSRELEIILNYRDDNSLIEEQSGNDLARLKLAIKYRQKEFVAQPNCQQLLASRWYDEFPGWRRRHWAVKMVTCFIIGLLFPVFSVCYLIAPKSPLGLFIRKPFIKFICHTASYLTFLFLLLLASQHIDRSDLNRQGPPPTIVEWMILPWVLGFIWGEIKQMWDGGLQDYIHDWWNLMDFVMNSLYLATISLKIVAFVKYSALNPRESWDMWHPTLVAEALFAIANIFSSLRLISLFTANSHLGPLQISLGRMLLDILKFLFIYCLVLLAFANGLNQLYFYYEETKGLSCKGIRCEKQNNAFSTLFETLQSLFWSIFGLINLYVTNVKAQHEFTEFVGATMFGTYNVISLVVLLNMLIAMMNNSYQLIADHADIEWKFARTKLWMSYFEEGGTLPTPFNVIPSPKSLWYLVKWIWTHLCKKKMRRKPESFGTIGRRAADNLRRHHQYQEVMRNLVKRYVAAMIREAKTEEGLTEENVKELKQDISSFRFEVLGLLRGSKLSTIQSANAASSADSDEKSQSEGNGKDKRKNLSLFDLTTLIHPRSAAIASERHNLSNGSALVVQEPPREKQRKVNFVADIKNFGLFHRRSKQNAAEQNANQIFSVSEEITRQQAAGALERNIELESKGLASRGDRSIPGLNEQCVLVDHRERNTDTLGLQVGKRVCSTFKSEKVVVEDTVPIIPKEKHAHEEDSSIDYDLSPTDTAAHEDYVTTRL
Test: mouse TRPC4 channel activators, dose response, cell-based, HEK293 TRPC4/mu-opioid, Fluo-4 calcium (AID 434937)
Assay type: functional
The source made the active and inactive calls.

Previously resolved entries follow.
Compound	EC50
CCN1CCN(c2c(S(=O)(=O)c3ccc(C)c(C)c3)cnc3ccc(F)cc23)CC1	944 nM (active)
CN(CCc1ccccn1)C(=S)Nc1cccc(S(=O)(=O)N(C)C)c1	5310 nM (active)
Cc1ccccc1C(=O)NNC(=S)NC(=O)COc1ccccc1	5310 nM (active)
CN(C)C(CNC(=O)CCc1c[nH]c2ccccc12)c1ccccc1 (configuration not stated)	74.7 nM (active)
CCCCC(c1nnnn1CC1CCCO1)N1CCN(c2nc3ccccc3s2)CC1 (configuration not stated)	1060 nM (active)

## Task Need EC50, item COc1ccc(C(CNC(=O)c2ccc(S(=O)(=O)N(C)C)cc2)N(C)C)cc1 (configuration not stated)
## Result 1500 nM (active)

## Task Returns the measured EC50 for the input compound. Input: CCOC(=O)C1=NN(C(=O)c2ccc(C)cc2)C(O)(c2ccc(Cl)cc2)C1 (configuration not stated)
## Result 9440 nM (active)
